Just for reference, PubChem BioAssay AID1963864 is where these values come from.

System: KRAS PDC multicell spheroid viability;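 note: drug exposure lasted seven days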
ASSAY_DETAILS: Anticancer human tumor 521955-158-R6-J3-PDC patient-derived pancreatic carcinoma cell line growth inhibition [KRAS2]
CONDITIONS: curve of first compound; second compound 0.1 µM
ENDPOINT_LABEL: log10(IC50) (log10 of the value in nM)
Plainly stated, the numbers are log10 of IC50 given in nM.

Reference set, count: 4
INSERT INTO results (compound, recorded_result) VALUES
  ('COC(=O)c1ccc2c(C(=Nc3ccc(N(C)C(=O)CN4CCN(C)CC4)cc3)c3ccccc3)c(O)[nH]c2c1 + CC1OCC2(CCN(c3cnc(Sc4ccnc(N)c4Cl)c(N)n3)CC2)C1N', 3.41),
  ('CC(=O)Nc1cccc(-n2c(=O)n(C3CC3)c(=O)c3c(Nc4ccc(I)cc4F)n(C)c(=O)c(C)c32)c1 + C=CC(=O)N1CCN(c2nc(OCC3CCCN3C)nc3c2CCN(c2cccc4cccc(C)c24)C3)CC1CC#N', 1.45),
  ('CC(C)n1nc(-c2ccc3oc(N)nc3c2)c2c(N)ncnc21 + COc1cc2nc(C)nc(NC(C)c3cc(N)cc(C(F)(F)F)c3)c2cc1OC1CCOC1', 1.99),
  ('CC(C)n1nc(-c2ccc3oc(N)nc3c2)c2c(N)ncnc21 + C=CC(=O)N1CCN(c2nc(OCC3CCCN3C)nc3c2CCN(c2cccc4cccc(C)c24)C3)CC1CC#N', 1.83);

# ---- query compound ----
IN: Sample COC(=O)c1ccc2c(C(=Nc3ccc(N(C)C(=O)CN4CCN(C)CC4)cc3)c3ccccc3)c(O)[nH]c2c1 + CNCc1ccccc1-c1csc(C(C)Nc2nc(C)nc3cc(OC)c(OC)cc23)c1 — what was its log10(IC50)?
OUT: 3.48
